meta.source: patent US20100152128A1

Tested on: subgenomic HCV Replicon in HuH-7 cells
Experiment description: Assay for inhibition of HCV RNA replication (replicon, in situ ribonuclease protection SPA)
Format: cell-based, Hepatitis C Virus
Protocol conditions: Hepatitis C virus; HuH-7 hepatoma cells containing a subgenomic HCV Replicon; inhibition of HCV RNA replication; read-out: EC50
Provide the reported pEC50 of each item.
The meaning of pEC50 here: minus log10 of the concentration in molar units.

Entry C[C@H](NP(=O)(O)OC[C@H]1O[C@@H](n2ccc(N)nc2=O)[C@](C)(O)[C@@H]1O)C(=O)OC1CCCCCCC1 , pEC50 reported as 5.00

Entry C[C@H](NP(=O)(O)OC[C@H]1O[C@@H](n2ccc(N)nc2=O)[C@](C)(O)[C@@H]1O)C(=O)OC1CCCCCC1 , pEC50 reported as 5.00

Entry CCCC(CCC)C(=O)OCCNP(=O)(O)OC[C@H]1O[C@@H](n2ccc3c(N)ncnc32)[C@](C)(O)[C@@H]1O , pEC50 reported as 6.15

Entry CCCC(CCC)COC(=O)[C@H](C)NP(=O)(O)OC[C@H]1O[C@@H](n2ccc(N)nc2=O)[C@](C)(O)[C@@H]1O , pEC50 reported as 5.22
